- SYSTEM_UNDER_TEST: T1, human IL-36R on cells (human, UniProt Q9HB29 20-575)
- T1 sequence (looked up): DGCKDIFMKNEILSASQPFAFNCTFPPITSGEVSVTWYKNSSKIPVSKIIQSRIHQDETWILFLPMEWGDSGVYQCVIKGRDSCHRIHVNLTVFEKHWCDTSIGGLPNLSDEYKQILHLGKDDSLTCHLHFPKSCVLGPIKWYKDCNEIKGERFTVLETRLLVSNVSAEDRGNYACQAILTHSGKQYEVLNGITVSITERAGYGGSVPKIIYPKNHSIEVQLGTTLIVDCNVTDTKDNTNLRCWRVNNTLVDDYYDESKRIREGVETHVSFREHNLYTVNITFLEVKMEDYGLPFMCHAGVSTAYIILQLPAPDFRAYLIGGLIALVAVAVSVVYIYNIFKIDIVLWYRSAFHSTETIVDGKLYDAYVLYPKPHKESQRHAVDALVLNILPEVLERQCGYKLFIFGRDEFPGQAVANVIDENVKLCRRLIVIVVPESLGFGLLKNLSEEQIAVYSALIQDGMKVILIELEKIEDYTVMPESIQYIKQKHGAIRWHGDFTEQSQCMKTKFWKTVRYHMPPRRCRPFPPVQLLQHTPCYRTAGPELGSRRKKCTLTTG
- EXPERIMENT_SUMMARY: cell-based or functional assay
MEASURE_NAME: IC90, GM-CSF release, NCI/ADR-RES cells, trun-IL-36b (nM)
Please respond with the number in nM and leave the unit unwritten.

Worked examples, 2 binders total:
binder="antibody 33D10 (antibody, V domains shown, Mouse monoclonal from hybridoma; also called 33D10B12; Mouse 33D10) VH: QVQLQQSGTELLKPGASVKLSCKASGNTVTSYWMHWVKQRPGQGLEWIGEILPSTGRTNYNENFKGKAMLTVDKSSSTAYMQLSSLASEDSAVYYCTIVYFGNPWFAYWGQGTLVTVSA VL: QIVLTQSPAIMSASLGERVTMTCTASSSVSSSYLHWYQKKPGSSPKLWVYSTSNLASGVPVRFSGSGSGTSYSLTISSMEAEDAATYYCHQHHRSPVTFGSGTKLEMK" result=0.6
binder="antibody 73F6 (antibody, V domains shown, Mouse monoclonal from hybridoma; also called 73F6F8; Mouse 73F6) VH: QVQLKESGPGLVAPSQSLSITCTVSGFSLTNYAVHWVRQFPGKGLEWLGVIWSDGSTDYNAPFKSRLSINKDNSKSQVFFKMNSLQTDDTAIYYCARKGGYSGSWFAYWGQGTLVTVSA VL: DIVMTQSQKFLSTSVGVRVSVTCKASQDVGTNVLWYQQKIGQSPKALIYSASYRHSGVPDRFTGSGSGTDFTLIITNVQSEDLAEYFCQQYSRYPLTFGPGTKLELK" result=1.7

Problem: Report IC90, GM-CSF release, NCI/ADR-RES cells, trun-IL-36b, nothing else, for this binder: antibody 81A1 (antibody, V domains shown, Mouse monoclonal from hybridoma; also called 81A1D1; Mouse 81A1) VH: QVQLKESGPGLVAPSQSLFITCTVSGFSLSSYEINWVRQVPGKGLEWLGVIWTGITTNYNSALISRLSISKDNSKSLVFLKMNSLQTDDTAIYYCARGTGTGFYYAMDYWGQGTSVTVSS VL: DIQMTQTTSSLSASLGDRVTISCRASQDIYKYLNWYQQKPDGTLKLLIYYTSGLHSGVPSRFSGSGSGTDFSLTISNLEPEDIATYFCQQDSKFPWTFGGDTKLEIK
Result: 1.2
